Tested on: Salmonella enterica subsp. enterica serovar Enteritidis
property measured: MIC

[
  {
    "substance smiles": "CSCC[C@H](NC(=O)[C@H](CCCN=C(N)N)NC(=O)[C@H](CCCN=C(N)N)NC(=O)[C@@H](N)CC(N)=O)C(=O)N[C@@H](CCCCN)C(=O)N[C@@H](Cc1c[nH]c2ccccc12)C(=O)N[C@@H](CCCCN)C(=O)N[C@@H](CCCCN)C(N)=O",
    "property measured": "MIC",
    "result": "≥ 50 µM"
  }
]

---

Tested on: Escherichia coli
experiment description: ≥ marks a high value that may be exact or a test limit, other limits are often not marked, values filed in µg/mL are converted to µM
property measured: MIC (µM)

[
  {
    "compound": "CC[C@H](C)[C@H](NC(=O)[C@H](CCCN=C(N)N)NC(=O)[C@H](CCC(=O)O)NC(=O)[C@H](CCCCN)NC(=O)[C@H](CCC(=O)O)NC(=O)[C@H](CCCCN)NC(=O)[C@H](CO)NC(=O)[C@H](CC(C)C)NC(=O)[C@@H](N)[C@@H](C)O)C(=O)N[C@H](C(=O)N[C@@H](CCC(N)=O)C(=O)N[C@@H](CCCN=C(N)N)C(=O)N[C@H](C(=O)N[C@@H](CCCN=C(N)N)C(=O)N[C@H](C(=O)N[C@@H](CO)C(=O)O)[C@@H](C)O)C(C)C)C(C)C [TLSKEKERIVQRVRTS]",
    "censor symbol": ">",
    "result": 25.9
  },
  {
    "compound": "C[C@H](NC(=O)[C@H](C)NC(=O)[C@H](CCCCN)NC(=O)[C@H](C)NC(=O)[C@H](Cc1ccccc1)NC(=O)[C@H](Cc1c[nH]c2ccccc12)NC(=O)[C@H](CCCCN)NC(=O)[C@H](Cc1ccccc1)NC(=O)[C@H](CCCCN)NC(=O)[C@H](CCCCN)NC(=O)[C@H](C)NC(=O)[C@H](Cc1ccccc1)NC(=O)[C@@H](N)CCCCN)C(=O)N[C@@H](Cc1ccccc1)C(=O)N[C@@H](CCCCN)C(=O)N[C@@H](Cc1ccccc1)C(=O)N[C@@H](Cc1ccccc1)C(=O)N[C@@H](CCCCN)C(=O)N[C@@H](CCCCN)C(N)=O [KFAKKFKWFAKAAFKFFKK]",
    "censor symbol": "=",
    "result": 7.23
  },
  {
    "compound": "CC[C@H](C)[C@H](N)C(=O)N[C@@H](CC(N)=O)C(=O)N[C@@H](Cc1c[nH]c2ccccc12)C(=O)N[C@@H](CC(C)C)C(=O)N[C@@H](CCCCN)C(=O)N[C@@H](CC(C)C)C(=O)NCC(=O)N[C@@H](CCCCN)C(=O)N[C@@H](CCCCN)C(=O)N[C@@H](CCSC)C(=O)N[C@@H](CCSC)C(=O)N[C@@H](CO)C(=O)N[C@@H](C)C(=O)N[C@@H](CC(C)C)C(=O)O [INWLKLGKKMMSAL]",
    "censor symbol": "=",
    "result": 100
  },
  {
    "compound": "CC[C@H](C)[C@H](NC(=O)[C@H](CC(C)C)NC(=O)[C@H](CCCN=C(N)N)NC(=O)[C@H](CCC(=O)O)NC(=O)[C@H](CC(C)C)NC(=O)[C@@H](NC(=O)[C@@H]1CCCN1C(=O)[C@H](CC(C)C)NC(=O)[C@H](C)NC(=O)[C@H](Cc1ccccc1)NC(=O)[C@H](C)NC(=O)[C@H](C)NC(=O)[C@@H](NC(=O)[C@H](CCCCN)NC(=O)CNC(=O)[C@@H](NC(=O)CNC(=O)[C@@H](NC(=O)[C@H](C)NC(=O)[C@H](C)N)[C@@H](C)O)[C@@H](C)O)[C@@H](C)O)C(C)C)C(=O)O [AATGTGKTAAFALPVLERLI]",
    "censor symbol": ">",
    "result": 128
  },
  {
    "compound": "CSCC[C@H](NC(=O)[C@H](CCCN=C(N)N)NC(=O)[C@H](CCCN=C(N)N)NC(=O)[C@@H](N)CC(N)=O)C(=O)N[C@@H](CCCCN)C(=O)N[C@@H](Cc1c[nH]c2ccccc12)C(=O)N[C@@H](CCCCN)C(=O)N[C@@H](CCCCN)C(N)=O [NRRMKWKK]",
    "censor symbol": ">",
    "result": 50
  }
]
